Data origin, for the record: patent US20250074869A1

- System: colon cancer cells HT-29
- PROTOCOL DETAILS: Efficacy study in nude mouse with xenograft tumor, HT-29
- Assay type: in vivo, human
- MEASUREMENT PARAMETERS: Mus musculus, HT-29, sc, 504 h; BALB/cA-nude mice, subcutaneous xenograft, 50 mg/kg intragastric once daily for 21 days, dosed as hydrochloride; read-out: % tumor inhibition (D21) HT-29
Lab note: compare inhibition in vivo at 50 mg/kg against 90%. Equal or greater, write MET. Smaller, write NOT MET.

As a guide, the following entries are already answered.
CCCN(CCC)CCC(=O)Nc1cc(/C=C\c2cc(OC)c(OC)c(OC)c2)ccc1OCC    MET
CCCCN(CCCC)CCC(=O)Nc1cc(/C=C\c2cc(OC)c(OC)c(OC)c2)ccc1OCC(F)(F)F    NOT MET
CCCCN(CCCC)CCC(=O)Nc1cc(/C=C\c2cc(OC)c(OC)c(OC)c2)ccc1OCC    NOT MET
CCOc1ccc(/C=C\c2cc(OC)c(OC)c(OC)c2)cc1NC(=O)CCNCC(F)F    NOT MET

Consider the record given below.
Check if inhibition in vivo at 50 mg/kg >= 90% (inclusive). Item: CCOc1ccc(/C=C\c2cc(OC)c(OC)c(OC)c2)cc1NC(=O)CCNCC(OC)OC
NOT MET
